assay: Plasma concentrations in patients on oral antitumor therapy (LC-MS); assay type: in vivo, human; details: patient plasma, all samples; r.c. = respective cmin
Provide the recorded Min–Max Concentration [% of r.c.] for the entries that follow.

Given the compound C=CC(=O)Nc1cc(Nc2nccc(-c3cn(C)c4ccccc34)n2)c(OC)cc1N(C)CCN(C)C [Osimertinib] , write its reported Min–Max Concentration [% of r.c.].
101.1 % of r.c.

Could you please provide reported Min–Max Concentration [% of r.c.] for CC(C)(C)c1nc(-c2cccc(NS(=O)(=O)c3c(F)cccc3F)c2F)c(-c2ccnc(N)n2)s1 [Dabrafenib] ? Thanks!
455.8–988.8 % of r.c.

Tell us which Min–Max Concentration [% of r.c.] value is on record for CNC(=O)c1ccccc1Sc1ccc2c(/C=C/c3ccccn3)n[nH]c2c1 [Axitinib]
6.0 % of r.c.

Determine from records and report Min–Max Concentration [% of r.c.] for COc1cc2c(Nc3ccc(Br)cc3F)ncnc2cc1OCC1CCN(C)CC1 [Vandetanib]
78.2–95.3 % of r.c.

Find the measured Min–Max Concentration [% of r.c.] of C=CC(=O)N1CCC[C@@H](n2nc(-c3ccc(Oc4ccccc4)cc3)c3c(N)ncnc32)C1 [Ibrutinib] and report it.
4.8–211.4 % of r.c.

Tell me measured Min–Max Concentration [% of r.c.] for CNC(=O)c1ccc(N2C(=S)N(c3ccc(C#N)c(C(F)(F)F)c3)C(=O)C2(C)C)cc1F [Enzalutamide] please.
97.1–154.2 % of r.c.

State its Min–Max Concentration [% of r.c.] for this compound: C[C@]12CC[C@H](O)CC1=CC[C@@H]1[C@@H]2CC[C@]2(C)C(c3cccnc3)=CC[C@@H]12 [Abiraterone]
4.3–1784.9 % of r.c.

Report measured Min–Max Concentration [% of r.c.]; entry is Cc1ccc(Nc2nccc(N(C)c3ccc4c(C)n(C)nc4c3)n2)cc1S(N)(=O)=O [Pazopanib]
76.6–86.5 % of r.c.

Give the reported value of Min–Max Concentration [% of r.c.] for this record: COc1cc2nccc(Oc3ccc(NC(=O)Nc4cc(C)on4)c(Cl)c3)c2cc1OC [Tivozanib]
16.4–68.3 % of r.c.

---

assay: Short-term stability in spiked pooled human plasma (bench-top, 4 °C, 56 °C); settings: validation standard 2xLLOV
assay_metric: Short-time stability (1h, 56°C) Accuracy [%] (%)
Express your answer in %, writing the number without its unit.

Identify the reported Short-time stability (1h, 56°C) Accuracy [%] for the following entry. CC(C)(C)c1nc(-c2cccc(NS(=O)(=O)c3c(F)cccc3F)c2F)c(-c2ccnc(N)n2)s1 [Dabrafenib]
46.2

Could you please provide reported Short-time stability (1h, 56°C) Accuracy [%] for COc1cc2nccc(Oc3ccc(NC(=O)Nc4cc(C)on4)c(Cl)c3)c2cc1OC [Tivozanib] ? Thanks!
49.4

Find the measured Short-time stability (1h, 56°C) Accuracy [%] of CNC(=O)c1ccccc1Sc1ccc2c(/C=C/c3ccccn3)n[nH]c2c1 [Axitinib] and report it.
67.7

Consider the molecule COc1cc2nccc(Oc3ccc(NC(=O)NC4CC4)c(Cl)c3)c2cc1C(N)=O [Lenvatinib] . State its measured Short-time stability (1h, 56°C) Accuracy [%].
56.5

Indicate the recorded Short-time stability (1h, 56°C) Accuracy [%] value for this molecule: O=C1CN2Cc3c(ccc(Cl)c3Cl)N=C2N1 [Anagrelide]
66.3

Consider the molecule Cc1nc(Nc2ncc(C(=O)Nc3c(C)cccc3Cl)s2)cc(N2CCN(CCO)CC2)n1 [Dasatinib] . State its measured Short-time stability (1h, 56°C) Accuracy [%].
47.7

Specify measured Short-time stability (1h, 56°C) Accuracy [%] for COC(=O)c1ccc2c(c1)NC(=O)/C2=C(\Nc1ccc(N(C)C(=O)CN2CCN(C)CC2)cc1)c1ccccc1 [Nintedanib] .
48.8

Return value of Short-time stability (1h, 56°C) Accuracy [%] for input COc1cc(N2CCC(N3CCN(C)CC3)CC2)ccc1Nc1ncc(Cl)c(Nc2ccccc2P(C)(C)=O)n1 [Brigatinib] , no commentary.
18.2
